Test system: human breast MCF-7 cancer cell line
Assay: In vitro cytotoxic screening (MTT assay), MCF-7
Type: cell-based
Conditions: 25 µM; average ± standard deviation
Note to self: Percentage cytotoxicity on MCF-7 under 20% means fulfilled, ties and anything higher get not fulfilled.

For orientation, consider the following solved cases.
compound	assignedLabel
O=c1c2c3c(sc2nc2[nH]c(=S)[nH]n12)CCC3	not fulfilled
CCOC(=O)Cc1nn2c(=O)c3c4c(sc3nc2[nH]1)CCC4	fulfilled

Req: For O=c1c2c3c(sc2nc2[nH]cnn12)CCC3 , is the recorded Percentage cytotoxicity on MCF-7 below the cut-off of 20%?
Resp: not fulfilled

Req: Item COc1ccc(-c2nn3c(=O)c4c5c(sc4nc3[nH]2)CCC5)cc1 [Compound 10d] : Percentage cytotoxicity on MCF-7 beneath 20%, strictly?
Resp: not fulfilled

Req: Decide: Percentage cytotoxicity on MCF-7 of O=c1c2c3c(sc2nc2nc([C@H](O)[C@@H](O)[C@H](O)[C@H](O)CO)[nH]n12)CCC3 [Compound 11a] strictly below 20%?
Resp: fulfilled

Req: Does this compound meet the criterion Percentage cytotoxicity on MCF-7 < 20%? O=c1c2c3c(sc2nc2nc([C@@H](O)[C@@H](O)[C@H](O)[C@H](O)CO)[nH]n12)CCC3 [Compound 11c]
Resp: fulfilled

Req: Percentage cytotoxicity on MCF-7 strictly < 20% for this compound? CC(=O)OC[C@@H](OC(C)=O)[C@H](OC(C)=O)[C@H](OC(C)=O)[C@@H](OC(C)=O)c1nc2nc3sc4c(c3c(=O)n2[nH]1)CCC4 [Compound 12b]
Resp: fulfilled

Req: Take the compound O=c1c2c3c(sc2nc2[nH]c(-c4ccc([N+](=O)[O-])cc4)nn12)CCC3 [Compound 10c] and say whether its Percentage cytotoxicity on MCF-7 is less than 20%.
Resp: not fulfilled

###

System: human prostate PC-3 cancer cell line
Assay: In vitro cytotoxic screening (MTT assay), PC-3
Type: cell-based
Conditions: 12.5 µM; average ± standard deviation
Method: Using human breast MCF-7, colorectal HCT-116, and prostate PC-3 cancer cell lines, preliminary antiproliferative effectiveness of cyclopenta[4,5]thieno[2,3-d][1,2,4]triazolo[1,5-a]pyrimidin-9(6H)-ones 4–16 was established in vitro through MTT assay at different concentrations (100, 50, 25 and 12.5 μM) (Figure 2). […]
assayEndpoint: Percentage cytotoxicity on PC-3 (%)
Numbers only, in %.

compound	Percentage cytotoxicity on PC-3 [%]
Cc1nn2c(=O)c3c4c(sc3nc2[nH]1)CCC4	0.0
CC(=O)C/C(C)=N/n1c(N[C@@H]2O[C@H](COC(C)=O)[C@@H](OC(C)=O)[C@H](OC(C)=O)[C@H]2OC(C)=O)nc2sc3c(c2c1=O)CCC3	0.0
O=c1c2c3c(sc2nc2[nH]cnn12)CCC3	0.0

Below is a list of compounds. For each, state its recorded Percentage cytotoxicity on PC-3.
1. CC(=O)OC[C@@H](OC(C)=O)[C@@H](OC(C)=O)[C@H](OC(C)=O)c1nc2nc3sc4c(c3c(=O)n2[nH]1)CCC4 [Compound 12d]
2. CC(=O)OC[C@@H](OC(C)=O)[C@H](OC(C)=O)[C@H](OC(C)=O)[C@@H](OC(C)=O)c1nc2nc3sc4c(c3c(=O)n2[nH]1)CCC4 [Compound 12b]
3. O=c1c2c3c(sc2nc2nc([C@@H](O)[C@H](O)[C@H](O)CO)[nH]n12)CCC3 [Compound 11d]

Resp:
1: 0.0; 2: 1.5; 3: 5.4

Fill in Percentage cytotoxicity on PC-3 for each of the 7 compounds listed.
1. O=c1c2c3c(sc2nc2nc([C@@H](O)[C@@H](O)[C@H](O)[C@H](O)CO)[nH]n12)CCC3 [Compound 11c]
2. O=c1c2c3c(sc2nc2[nH]c(-c4ccc(Cl)cc4)nn12)CCC3 [Compound 10a]
3. O=c1c2c3c(sc2nc2[nH]c(-c4ccc([N+](=O)[O-])cc4)nn12)CCC3 [Compound 10c]
4. CCOC(=O)Cc1nn2c(=O)c3c4c(sc3nc2[nH]1)CCC4
5. COc1ccc(-c2nn3c(=O)c4c5c(sc4nc3[nH]2)CCC5)cc1 [Compound 10d]
6. COc1ccc(-c2nn3c(=O)c4c5c(sc4nc3n2[C@@H]2O[C@H](COC(C)=O)[C@@H](OC(C)=O)[C@H](OC(C)=O)[C@H]2OC(C)=O)CCC5)cc1
7. O=c1c2c3c(sc2nc2[nH]c(=S)[nH]n12)CCC3

Resp:
0.0
20.7
48.3
0.0
9.1
0.0
3.7

Quick batch: Percentage cytotoxicity on PC-3 for everything below.
1. O=c1c2c3c(sc2nc2nc([C@H](O)[C@@H](O)[C@H](O)[C@H](O)CO)[nH]n12)CCC3 [Compound 11a]
2. O=c1c2c3c(sc2nc2[nH]c(-c4ccc(Br)cc4)nn12)CCC3 [Compound 10b]

Resp:
1. 9.9
2. 10.9
